System: HPPD polypeptides
ASSAY: coupled HPPD activity assay: turnover and residual turnover in crude extracts
Assay type: biochemical, Pseudomonas fluorescens
MEASUREMENT PARAMETERS: presence of 100 μM Cmpd. 1; high substrate concentration; changes in absorbance (OD) at 320 nm
MEASURE: Residual turnover
Returns: the value as a bare number; no unit string appended.

MOLECULE	Residual turnover
48 (protein, mutant HPPD polypeptide) MADLYENPMGLMGFEFIEFASPTPGTLEPIFEIMGFTKVATHRSKNVHLYRQGEINLILNNEPNSIASYFAAEHGPSVCGMAFRVKDSQKAYNRALELGAQPIHIDTGPMELNLPAIKGIGGAPLYLIDRFGEGSSIYDIDFVYLEGVERNPVGAGLKVIDHLTHNVYRGRMVYWANFYEKLFNFREARYFDIKGEYTGLTSKAMSAPDGMIRIPLNEESSKGAGQIEEFLMQFNGEGIQHVAFLTDDLVKTWDALKKIGMRFMTAPGDNYYEMLEGRLPDHGEPVDQLQARGILLDGSSVEGDKRLLLQIFSETLMGPVFFEFIQRKGDDGFGPHSFKVLFEQMERDQVRRGVLTAD	0.117

Here is the next item to consider.
Data request: Fill in the blank: the reported Residual turnover of 29 (protein, mutant HPPD polypeptide) MADLYENPMGLMGFEFIEFASPTPGTLEPIFEIMGFTKVATHRSKNVHLYRQGEINLILNNEPNSIASYFAAEHGPSVCGMAFRVKDSQKAYNRALELGAQPIHIDTGPMELNLPAIKGIGGAPLYLIDRFGEGSSIYDIDFVYLEGVERNPVGAGLKVIDHLTHNVYRGRMVYWANFYEKLFNFREARYFDIKGEYTGLTSKAMSAPDGMIRIPLNEESSKGAGQIEEFLMQFNGEGIQHVAFLTDDLVKTWDALKKIGMRFMTAPPDNYYEMLEGRLPDHGEPVDQLQARGILLDGSSVEGDKRLLLQIFSETLMGPVFFEFIQRKGDDGFGPHSFKVLFESIERDQVRRGVLTAD is ____.
Data returned: 0.084
